test: Human pharmacokinetic study, Example 4 Arm III (14-day multiple dose, steady state); assay type: in vivo; conditions: three Formulation C5-12 tablets daily for 14 days, non-fasting, Day 14, N = 14
# Lookup of reported β keyed by entry
Measured attribute: β (h⁻¹)

>>> measurement("COC(=O)N[C@H](C(=O)N1CCC[C@H]1C(=O)Nc1ccc([C@@H]2CC[C@@H](c3ccc(NC(=O)[C@@H]4CCCN4C(=O)[C@@H](NC(=O)OC)C(C)C)cc3)N2c2ccc(C(C)(C)C)cc2)cc1)C(C)C")
0.023
>>> measurement("CC(C)c1nc(CN(C)C(=O)N[C@H](C(=O)N[C@@H](Cc2ccccc2)C[C@H](O)[C@H](Cc2ccccc2)NC(=O)OCc2cncs2)C(C)C)cs1 [Compound 3, reference compound]")
0.174
>>> measurement("Cc1cnc(C(=O)N[C@H]2CCCCC/C=C\\[C@@H]3C[C@@]3(C(=O)NS(=O)(=O)C3CC3)NC(=O)[C@@H]3C[C@@H](Oc4nc5ccccc5c5ccccc45)CN3C2=O)cn1")
0.151
>>> measurement("COc1c(-c2ccc3cc(NS(C)(=O)=O)ccc3c2)cc(-n2ccc(=O)[nH]c2=O)cc1C(C)(C)C")
0.117

---

# Lookup of reported half-life keyed by entry
assay: Human pharmacokinetic study, Example 5 Arm II (multiple dose, crossover); format: in vivo; conditions: both sexes, human, blood, oral, 3 film-coated Formulation C5-12 tablets daily; Example 5 Arm II, multiple dose 14 days, non-fasting; Regimen A (C5-12): three film-coated Formulation C5-12 tablets daily; N = 63
Measured attribute: half-life (min)

>>> measurement("Cc1cnc(C(=O)N[C@H]2CCCCC/C=C\\[C@@H]3C[C@@]3(C(=O)NS(=O)(=O)C3CC3)NC(=O)[C@@H]3C[C@@H](Oc4nc5ccccc5c5ccccc45)CN3C2=O)cn1 [Compound 1]")
312
>>> measurement("COc1c(-c2ccc3cc(NS(C)(=O)=O)ccc3c2)cc(-n2ccc(=O)[nH]c2=O)cc1C(C)(C)C [Compound 4]")
372
>>> measurement("CC(C)c1nc(CN(C)C(=O)N[C@H](C(=O)N[C@@H](Cc2ccccc2)C[C@H](O)[C@H](Cc2ccccc2)NC(=O)OCc2cncs2)C(C)C)cs1 [Compound 3, reference compound]")
276

---

# Lookup of reported AUC keyed by entry
test: Human pharmacokinetic study, Example 4 Arm III (14-day multiple dose, steady state); assay type: in vivo; conditions: human, in vivo, oral, 3 Formulation C5-12 tablets daily, three Formulation C5-12 tablets daily for 14 days, non-fasting, Day 14, N = 14, read-out: AUC24, geometric mean
Measured attribute: AUC (ng·h/mL)

>>> measurement("CC(C)c1nc(CN(C)C(=O)N[C@H](C(=O)N[C@@H](Cc2ccccc2)C[C@H](O)[C@H](Cc2ccccc2)NC(=O)OCc2cncs2)C(C)C)cs1 [Compound 3, reference compound]")
10700
>>> measurement("COC(=O)N[C@H](C(=O)N1CCC[C@H]1C(=O)Nc1ccc([C@@H]2CC[C@@H](c3ccc(NC(=O)[C@@H]4CCCN4C(=O)[C@@H](NC(=O)OC)C(C)C)cc3)N2c2ccc(C(C)(C)C)cc2)cc1)C(C)C [Compound 2]")
1720
>>> measurement("Cc1cnc(C(=O)N[C@H]2CCCCC/C=C\\[C@@H]3C[C@@]3(C(=O)NS(=O)(=O)C3CC3)NC(=O)[C@@H]3C[C@@H](Oc4nc5ccccc5c5ccccc45)CN3C2=O)cn1 [Compound 1]")
10600
>>> measurement("COc1c(-c2ccc3cc(NS(C)(=O)=O)ccc3c2)cc(-n2ccc(=O)[nH]c2=O)cc1C(C)(C)C [Compound 4]")
12000

---

assay: Human pharmacokinetic study, Example 5 Arm I (single dose, replicated crossover); type: in vivo; details: both sexes, human, blood, oral, single dose, non-fasting, Regimen B (reference regimen): two Triple Tablets + one Single Tablet morning, one Single Tablet evening, N = 171
Measured attribute: half-life (min)

>>> measurement("COc1c(-c2ccc3cc(NS(C)(=O)=O)ccc3c2)cc(-n2ccc(=O)[nH]c2=O)cc1C(C)(C)C [Compound 4]")
348

---

# Lookup of reported Cmax keyed by entry
assay: Human pharmacokinetic study, Example 4 Arm III (14-day multiple dose, steady state); format: in vivo; conditions: human, in vivo, oral, 3 Formulation C5-12 tablets daily, three Formulation C5-12 tablets daily for 14 days, non-fasting, Day 14, N = 14, read-out: Cmax, geometric mean
Measured attribute: Cmax (ng/mL)

>>> measurement("Cc1cnc(C(=O)N[C@H]2CCCCC/C=C\\[C@@H]3C[C@@]3(C(=O)NS(=O)(=O)C3CC3)NC(=O)[C@@H]3C[C@@H](Oc4nc5ccccc5c5ccccc45)CN3C2=O)cn1")
1640
>>> measurement("COC(=O)N[C@H](C(=O)N1CCC[C@H]1C(=O)Nc1ccc([C@@H]2CC[C@@H](c3ccc(NC(=O)[C@@H]4CCCN4C(=O)[C@@H](NC(=O)OC)C(C)C)cc3)N2c2ccc(C(C)(C)C)cc2)cc1)C(C)C")
135
>>> measurement("COc1c(-c2ccc3cc(NS(C)(=O)=O)ccc3c2)cc(-n2ccc(=O)[nH]c2=O)cc1C(C)(C)C")
1250
>>> measurement("CC(C)c1nc(CN(C)C(=O)N[C@H](C(=O)N[C@@H](Cc2ccccc2)C[C@H](O)[C@H](Cc2ccccc2)NC(=O)OCc2cncs2)C(C)C)cs1 [Compound 3, reference compound]")
1430

---

assay: Sink Conditions dissolution testing of Formulation C5-12; assay type: physicochemical; details: 1 hour, 900 mL 0.05 M sodium phosphate buffer pH 6.8, 15 mM cTAB, USP Apparatus 2, 100 RPM, 37 °C, N = 6
Measured attribute: % Released (%)

>>> measurement("COc1c(-c2ccc3cc(NS(C)(=O)=O)ccc3c2)cc(-n2ccc(=O)[nH]c2=O)cc1C(C)(C)C")
1
>>> measurement("Cc1cnc(C(=O)N[C@H]2CCCCC/C=C\\[C@@H]3C[C@@]3(C(=O)NS(=O)(=O)C3CC3)NC(=O)[C@@H]3C[C@@H](Oc4nc5ccccc5c5ccccc45)CN3C2=O)cn1")
54
>>> measurement("COC(=O)N[C@H](C(=O)N1CCC[C@H]1C(=O)Nc1ccc([C@@H]2CC[C@@H](c3ccc(NC(=O)[C@@H]4CCCN4C(=O)[C@@H](NC(=O)OC)C(C)C)cc3)N2c2ccc(C(C)(C)C)cc2)cc1)C(C)C")
55
>>> measurement("CC(C)c1nc(CN(C)C(=O)N[C@H](C(=O)N[C@@H](Cc2ccccc2)C[C@H](O)[C@H](Cc2ccccc2)NC(=O)OCc2cncs2)C(C)C)cs1 [Compound 3, reference compound]")
58

---

# Lookup of reported half-life keyed by entry
assay: Human pharmacokinetic study, Example 5 Arm I (single dose, replicated crossover); assay type: in vivo; conditions: both sexes, human, blood, oral, 3 film-coated Formulation C5-12 tablets, single dose, non-fasting, Regimen A (C5-12): three film-coated Formulation C5-12 tablets, N = 172
Measured attribute: half-life (h)

>>> measurement("COC(=O)N[C@H](C(=O)N1CCC[C@H]1C(=O)Nc1ccc([C@@H]2CC[C@@H](c3ccc(NC(=O)[C@@H]4CCCN4C(=O)[C@@H](NC(=O)OC)C(C)C)cc3)N2c2ccc(C(C)(C)C)cc2)cc1)C(C)C [Compound 2]")
37.9
>>> measurement("COc1c(-c2ccc3cc(NS(C)(=O)=O)ccc3c2)cc(-n2ccc(=O)[nH]c2=O)cc1C(C)(C)C [Compound 4]")
6.91

---

assay: Sink Conditions dissolution testing of Formulation C5-12; type: physicochemical; conditions: 8 hours, pH 6.8 buffer, 15 mM cTAB, N = 6
# Lookup of reported % Released keyed by entry
Measured attribute: % Released (%)

>>> measurement("CC(C)c1nc(CN(C)C(=O)N[C@H](C(=O)N[C@@H](Cc2ccccc2)C[C@H](O)[C@H](Cc2ccccc2)NC(=O)OCc2cncs2)C(C)C)cs1 [Compound 3, reference compound]")
103
>>> measurement("Cc1cnc(C(=O)N[C@H]2CCCCC/C=C\\[C@@H]3C[C@@]3(C(=O)NS(=O)(=O)C3CC3)NC(=O)[C@@H]3C[C@@H](Oc4nc5ccccc5c5ccccc45)CN3C2=O)cn1 [Compound 1]")
102
>>> measurement("COc1c(-c2ccc3cc(NS(C)(=O)=O)ccc3c2)cc(-n2ccc(=O)[nH]c2=O)cc1C(C)(C)C [Compound 4]")
25
>>> measurement("COC(=O)N[C@H](C(=O)N1CCC[C@H]1C(=O)Nc1ccc([C@@H]2CC[C@@H](c3ccc(NC(=O)[C@@H]4CCCN4C(=O)[C@@H](NC(=O)OC)C(C)C)cc3)N2c2ccc(C(C)(C)C)cc2)cc1)C(C)C [Compound 2]")
103

---

experiment: Sink Conditions dissolution testing of Formulation C5-12; assay type: physicochemical; conditions: 16 hours, pH 6.8 buffer, 15 mM cTAB, N = 6
Measured attribute: % Released (%)

>>> measurement("COc1c(-c2ccc3cc(NS(C)(=O)=O)ccc3c2)cc(-n2ccc(=O)[nH]c2=O)cc1C(C)(C)C")
51
>>> measurement("Cc1cnc(C(=O)N[C@H]2CCCCC/C=C\\[C@@H]3C[C@@]3(C(=O)NS(=O)(=O)C3CC3)NC(=O)[C@@H]3C[C@@H](Oc4nc5ccccc5c5ccccc45)CN3C2=O)cn1")
101
>>> measurement("CC(C)c1nc(CN(C)C(=O)N[C@H](C(=O)N[C@@H](Cc2ccccc2)C[C@H](O)[C@H](Cc2ccccc2)NC(=O)OCc2cncs2)C(C)C)cs1 [Compound 3, reference compound]")
100
>>> measurement("COC(=O)N[C@H](C(=O)N1CCC[C@H]1C(=O)Nc1ccc([C@@H]2CC[C@@H](c3ccc(NC(=O)[C@@H]4CCCN4C(=O)[C@@H](NC(=O)OC)C(C)C)cc3)N2c2ccc(C(C)(C)C)cc2)cc1)C(C)C")
102

Source: patent US10105365B2
